B1: Protein PTHB1 (Homo sapiens), Q3SYG4 (parent)
chain: MSLFKARDWWSTILGDKEEFDQGCLCLANVDNSGNGQDKIIVGSFMGYLRIFSPHPAKTGDGAQAEDLLLEVDLRDPVLQVEVGKFVSGTEMLHLAVLHSRKLCVYSVSGTLGNVEHGNQCQMKLMYEHNLQRTACNMTYGSFGGVKGRDLICIQSMDGMLMVFEQESYAFGRFLPGFLLPGPLAYSSRTDSFLTVSSCQQVESYKYQVLAFATDADKRQETEQQKLGSGKRLVVDWTLNIGEQALDICIVSFNQSASSVFVLGERNFFCLKDNGQIRFMKKLDWSPSCFLPYCSVSEGTINTLIGNHNNMLHIYQDVTLKWATQLPHIPVAVRVGCLHDLKGVIVTLSDDGHLQCSYLGTDPSLFQAPNVQSRELNYDELDVEMKELQKIIKDVNKSQGVWPMTEREDDLNVSVVVSPNFDSVSQATDVEVGTDLVPSVTVKVTLQNRVILQKAKLSVYVQPPLELTCDQFTFEFMTPDLTRTVSFSVYLKRSYTPSELEGNAVVSYSRPTDRNPDGIPRVIQCKFRLPLKLICLPGQPSKTASHKITIDTNKSPVSLLSLFPGFASQSDDDQVNVMGFHFLGGARITVLASKTSQRYRIQSEQFEDLWLITNELILRLQEYFEKQGVKDFACSFSGSIPLQEYFELIDHHFELRINGEKLEELLSERAVQFRAIQRRLLARFKDKTPAPLQHLDTLLDGTYKQVIALADAVEENQGNLFQSFTRLKSATHLVILLIALWQKLSADQVAILEAAFLPLQEDTQELGWEETVDAAISHLLKTCLSKSSKEQALNLNSQLNIPKDTSQLKKHITLLCDRLSKGGRLCLSTDAAAPQTMVMPGGCTTIPESDLEERSVEQDSTELFTNHRHLTAETPRPEVSPLQGVSE
partner: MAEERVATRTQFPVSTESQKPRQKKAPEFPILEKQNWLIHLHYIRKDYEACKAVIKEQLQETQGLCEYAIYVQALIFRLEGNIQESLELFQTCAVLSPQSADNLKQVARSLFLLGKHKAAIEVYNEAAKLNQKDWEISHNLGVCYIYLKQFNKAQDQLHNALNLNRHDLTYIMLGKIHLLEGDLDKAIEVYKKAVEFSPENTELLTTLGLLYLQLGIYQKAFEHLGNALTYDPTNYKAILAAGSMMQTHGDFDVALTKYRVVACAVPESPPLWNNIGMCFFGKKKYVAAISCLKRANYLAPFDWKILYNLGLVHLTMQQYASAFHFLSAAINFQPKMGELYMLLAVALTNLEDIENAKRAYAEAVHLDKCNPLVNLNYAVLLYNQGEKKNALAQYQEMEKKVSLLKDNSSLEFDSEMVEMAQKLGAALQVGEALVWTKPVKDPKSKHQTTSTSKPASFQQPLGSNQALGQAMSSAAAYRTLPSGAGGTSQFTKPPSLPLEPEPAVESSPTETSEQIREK

Variants of: B1
Conditions Used: with bbs4_human BBS4, Q96RK4
Test Readout: effect of a mutation on the interaction

Known results for variants:
Q798A :: with no effect
S439E :: with no effect
Q742E :: with no effect
I548A :: with no effect
L618E :: with no effect
I519K :: with no effect

Now consider the entry below.
What value of effect of a mutation on the interaction has been recorded for this entry: Y495A with no effect
